Reference source: paper PMC11161652

# System Under Test: T1, PHD2 and PHD3 fingers of human MLL4 (aa 227-324) (human, UniProt O14686 227-324)
# T1 chain: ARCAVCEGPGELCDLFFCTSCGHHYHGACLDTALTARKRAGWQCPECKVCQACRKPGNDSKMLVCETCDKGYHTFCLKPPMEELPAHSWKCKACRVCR
Quantity Name: Kd (µM)
Give bare numbers, in µM.

Input NRTGAITLADIKAKAQLVKAQ (peptide, UniProt Q76L83 650-670, looked up, ASXL2, residues 650-670; R655I is said to be associated with large intestine cancer; also called R655I mutant of ASXL2; source: synthetic peptide (SynPeptide)) [ASXL2 peptide (aa 650-670) R655I] , output reported Kd.
11
